Below, each entry is listed alongside its reported GI50.
system: T47D; assay: NCI tumour cell line growth inhibition, 48 h
Activity calls are given as the source filed them. No stated cut-off is given here; in the data, active = GI50 up to about 1.1 µM and inactive = higher.

>  <COMPOUND>
COc1cc(C2c3cc4c(cc3OC(N3CCCCC3)C2C)OCO4)cc(OC)c1O (stereo not given)

>  <GI50>
11.7 µM (inactive)

$$$$
>  <COMPOUND>
COCC(=O)[C@]1(O)Cc2c(O)c3c(c(O)c2[C@@H](OC2CC(N)C(O)C(C)O2)C1)C(=O)c1c(OC)cccc1C3=O (stereo not given in full)

>  <GI50>
0.106 µM (active)

$$$$
>  <COMPOUND>
CCOC(=O)C1(C(=O)OCC)C=C(c2ccccc2)N(C2OC(COC(C)=O)C(OC(C)=O)C(OC(C)=O)C2OC(C)=O)C1=S (stereo not given)

>  <GI50>
> 100 µM (inactive)

$$$$
>  <COMPOUND>
O=C1OC(c2ccc(O)c(-c3ccccc3)c2)(c2ccc(O)c(-c3ccccc3)c2)c2c(Cl)c(Cl)c(Cl)c(Cl)c21

>  <GI50>
> 100 µM (inactive)

$$$$
>  <COMPOUND>
O=[N+]([O-])O

>  <GI50>
> 100 µM (inactive)

$$$$
>  <COMPOUND>
O=[N+]([O-])c1cccc(Cl)c1Oc1ccc(S(=O)(=O)N/C(=N\O)Nc2ccc(Cl)cc2)cc1

>  <GI50>
5.97 µM (inactive)

$$$$
>  <COMPOUND>
Cc1ccc(C(=O)N/N=C(\N=N\c2cccc(C)c2)c2ccc(N(CCC#N)CCC#N)cc2C)cc1

>  <GI50>
44 µM (inactive)

$$$$
>  <COMPOUND>
c1cc(NNc2cccc(-c3nnn[nH]3)c2)cc(-c2nnn[nH]2)c1

>  <GI50>
> 100 µM (inactive)

$$$$
>  <COMPOUND>
CCCCCCCCCCCC(=O)N(CCCCCCCCC)CC(O)C(O)C(OC1OC(CO)C(O)C(O)C1O)C(O)CO (stereo not given)

>  <GI50>
20.5 µM (inactive)

$$$$
>  <COMPOUND>
COC1(OC)C2C=CC1C([C@](C)(N)CO)C2 (stereo not given in full)

>  <GI50>
> 100 µM (inactive)

$$$$
>  <COMPOUND>
O=C1c2ccccc2C(=O)c2nn(N=P(CP(=Nn3nc4c(n3)C(=O)c3ccccc3C4=O)(c3ccccc3)c3ccccc3)(c3ccccc3)c3ccccc3)nc21

>  <GI50>
> 100 µM (inactive)

$$$$
>  <COMPOUND>
Cc1nccn1S(=O)(=O)c1ccc(Br)cc1Br

>  <GI50>
22.6 µM (inactive)

$$$$
>  <COMPOUND>
OC(CN(CCCl)CCCl)C(O)C(O)C(O)CN(CCCl)CCCl (stereo not given)

>  <GI50>
30.5 µM (inactive)

$$$$
>  <COMPOUND>
CNc1ccc2nc(-c3ccc(OC(=O)N(C)C)cc3)cn2c1

>  <GI50>
22.2 µM (inactive)

$$$$
>  <COMPOUND>
COc1cc(NCC2COc3c(ccc(OC)c3OC)C2=O)c([N+](=O)[O-])cc1OC (stereo not given)

>  <GI50>
26.1 µM (inactive)

$$$$
>  <COMPOUND>
CC(=O)NC(C)(C)C1CC=C(C)/C(=N\O)C1 (stereo not given)

>  <GI50>
> 100 µM (inactive)

$$$$
>  <COMPOUND>
On1c(-c2ccccc2)nc2ccccc2c1=S

>  <GI50>
3.37 µM (inactive)

$$$$
>  <COMPOUND>
COc1ccc(C(=O)CCN(C)C)c2ccccc12

>  <GI50>
11.3 µM (inactive)

$$$$
>  <COMPOUND>
CC(C)(C)c1cc(C(C)(C)C)c2sc(=S)oc2c1O

>  <GI50>
5.19 µM (inactive)

$$$$
>  <COMPOUND>
C=C1CN=C(Nc2ccc(Cl)cc2)S1

>  <GI50>
> 100 µM (inactive)

$$$$

Source of measurements: ChEMBL document CHEMBL1201862
